B1: MNAT1 (parent)
chain: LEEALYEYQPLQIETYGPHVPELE

# Variants of: B1
# test: protein stability index of a GFP-peptide fusion (GPS, HEK-293T) (PSI 1-6); higher = more stable;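 further: lentivirally expressed fusions sorted by FACS into six bins by GFP to DsRed ratio, PSI derived from sequencing read proportions per bin multiplied by bin number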
# conditionParameters: c terminus: a fixed tail appended
experimentalEndpoint: protein stability index
Give the figure by itself; no unit, no explanation.

Look up protein stability index for this variant: T15Y 2.01

Next record, please: I13S 4.96

Next record, please: Y6L 3.43

Next record, please: L5S 4.59

Next record, please: I13M 4.27

Next record, please: E14I 1.81

Next record, please: G17Q 2.53

Next record, please: V20F 2.36

Next record, please: V20Q 2.92

Next record, please: I13W 3.8

Next record, please: H19W 1.5

Next record, please: E7P 2.71

Next record, please: L11F 4.11

Next record, please: I13E 5.29

Next record, please: E24R 1.95

Next record, please: A4C 3.81

Next record, please: Y6M 3

Next record, please: E2L 2.96

Next record, please: Q12A 2.33

Next record, please: P21C 3.78

Next record, please: Y16D 5.37

Next record, please: V20W 2.17

Next record, please: E3M 2.19

Next record, please: P21D 3.3

Next record, please: Y16M 3.79

Next record, please: E2R 3.28

Next record, please: G17H 3.14

Next record, please: Q9D 4.67

Next record, please: L1I 3.45

Next record, please: P10R 4.01

Next record, please: E2C 3.03

Next record, please: L11N 4.71

Next record, please: Y16I 3.61

Next record, please: E3T 3.16

Next record, please: P21S 2.41

Next record, please: P10C 3.27

Next record, please: Q9M 2.74

Next record, please: E3C 2.42

Next record, please: Y6A 2.3

Next record, please: L1W 4

Next record, please: G17L 1.85

Next record, please: E24T 2.67

Next record, please: E7Q 2.28

Next record, please: Q9A 2.86

Next record, please: Q9L 2.7

Next record, please: Q12Y 2.01
